test-method-notes: qHTS Assay for Anthrax Lethal Toxin Internalization; note: % is set by controls: 0 for no effect and ±100 for the full control effect; nearly all actives have a fitted effect of over 50% in size
condition-description: Cells, FRET ratio (460/530); series mostly up to 40 µM
The whole screen tested about 70,000 compounds, of which about 470 (0.67%) were called active. Inconclusive results (about 18%) are left out. This excerpt belongs to a sample that is enriched for actives.
measured-quantity: activity change, negative = inhibition

Input line: activity change, negative = inhibition for Cc1sc2c(c1C)c(=O)n(-c1ccccc1)c1nncn21 ?
Output line: inactive

Input line: What value of activity change, negative = inhibition has been reported for the following molecule? C[C@@H](N)[C@@H](C)Cc1ccccc1
Output line: -3.08% [at 8 µM] (inactive)

Input line: Need activity change, negative = inhibition, item CCS(=O)(=O)N(C)[C@@H]1c2cc(C#N)ccc2OC(C)(C)[C@H]1O
Output line: inactive

Input line: Which activity change, negative = inhibition reading was recorded for the molecule c1ccc(Oc2ccccc2)cc1 ?
Output line: inactive

Input line: May I ask what activity change, negative = inhibition has been recorded for COC(=O)[C@@H]1CC[C@H](C)[C@@H](c2ccc(C)cc2)N1C(=O)c1ccc(/C=N\O[C@@H](C)c2cn([C@H](CO)Cc3ccccc3)nn2)cc1 ?
Output line: 5.23% [at 8 µM] (inactive)

We now examine a further molecule.
Input line: Could you share which activity change, negative = inhibition value was measured for O=C(Nc1ccncc1)c1cc2ccccc2o1 ?
Output line: inactive
